target: UniProt:O60885; test: BRD4 degradation assay (Western-blot / Simple Western) in 22RV1 cells; format: cell-based; details: 22Rv1, 5 h, read-out: BRD4 degradation of 22RV1 (200 nM 5 h)
Below is a list of entries, each paired with its recorded activity at 0.2 µM value.
READOUT TYPE: activity at 0.2 µM

- CC#CC(=O)Nc1ccc(C2=N[C@@H](CC(=O)OC(C)(C)C)c3nnc(C)n3-c3sc(C)c(C)c32)cc1: 20 to 50%
- CC#CC(=O)Nc1ccc(C2=N[C@@H](Cc3nccs3)c3nnc(C)n3-c3sc(C)c(C)c32)cc1: 50 to 80%
- C#CC(=O)Nc1ccc(C2=N[C@@H](CC(=O)OC(C)(C)C)c3nnc(C)n3-c3sc(C)c(C)c32)cc1: < 20%
- C=CS(=O)(=O)Nc1ccc(C2=N[C@@H](CC(=O)OC(C)(C)C)c3nnc(C)n3-c3sc(C)c(C)c32)cc1: < 20%
- Cc1sc2c(c1C)C(c1ccc(NC(=O)CCl)cc1)=N[C@@H](Cc1nccs1)c1nnc(C)n1-2: 80 to 100%
- C=CC(=O)Nc1ccc(C2=N[C@@H](CC(=O)OC(C)(C)C)c3nnc(C)n3-c3sc(C)c(C)c32)cc1: < 20%
